B1: glmS ribozyme (parent)
chain: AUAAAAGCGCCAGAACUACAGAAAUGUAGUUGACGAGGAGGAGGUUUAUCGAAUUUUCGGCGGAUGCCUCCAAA

# Variants of: B1
# measurement notes: self-cleavage kobs at 2500 uM GlcN6P; higher = faster cleavage; RNA array
# condition label: with glucosamine-6-phosphate
Variants at the floor of the assay were thinned out.
readout kind: self-cleavage kobs at 2500 uM GlcN6P (s⁻¹)
Reply with just the number (in s⁻¹).

Some entries whose results are on file:
1) AUAAAAGCGCCAGAACUACAGAAAUGUAGUUGACGAGGAGGAGGUGUAUCGAAUUUUUGGCGGAUGCGUCCAAA [U46G C58U C68G] ... 0.000337
2) AUAAAAGCGCCAGAACUACAGAAAUGUAUUUGACGAGGAGGAGGUUUAUCGAAUUUUCGGCGGGUGGCUCCAAA [G29U A64G C67G] ... 6.02e-05
3) AUAAAAGCGCCAGAAAUACAGAAAUGUAGUUGACGAGGAAGAGGUUUAUCGAAUUUUCGGCGGAUGCCUCCAAA [C16A G40A] ... 0.000155
4) AUAAAAGCGCCAGAACUACAGAAAUGUAGUUGACGAGGAGGAGGUUUAUCGAAUCUUCUGCGGAUGCCUCCAAA [U55C G59U] ... 3.25e-05
5) AUAAAAGCGGCAGAACUACAGAAAUGUAGUUGACGAGGAGGAGGUUUAUCGAAUUUUCUGCGGAUGCCUCCAAA [C10G G59U] ... 2.34e-05

# input Query: self-cleavage kobs at 2500 uM GlcN6P; subject: AUAAAAGCGCCAGAUCUACAGAAAUGUAGUUGACGAGGAGGAGGUUUAUCGAAUUUUCGGCGGAUACCUCCAAA [A15U G66A]
# output 0.00183

# input Query: self-cleavage kobs at 2500 uM GlcN6P; subject: AUAAAAGCGCCAGUACUACAGAAAUGUAGUUGACGAGGAGGAGGUUUCUCGAAUUUUCGGCGGAUGCCUUCAAA [A14U A48C C70U]
# output 3.58e-05

# input Query: self-cleavage kobs at 2500 uM GlcN6P; subject: AUAAAAGCGCAAGAACUACAGAAAUGUAUUUGACGAGGAGGAGGUUUAUGGAAUUUUCGGCGGAUGCCUCCAAA [C11A G29U C50G]
# output 5.28e-05

# input Query: self-cleavage kobs at 2500 uM GlcN6P; subject: AUAAAAGCGCCAUAUCUACAGAAAUGUAGUUGACGAGGAGGAGGUUUAUCGAAUUUUCGGCGGAUGCCUCUAAA [G13U A15U C71U]
# output 5.99e-05

# input Query: self-cleavage kobs at 2500 uM GlcN6P; subject: AUAAAAGCGCCAGAACUACAGAAAUGUAGUUGACGAGGAAGAGAUUUAUCGAAUUUUCGGCGGAUGCCUCCAAA [G40A G44A]
# output 4.13e-05

# input Query: self-cleavage kobs at 2500 uM GlcN6P; subject: AUAAAAGCGCCAGAACUACAGAAAUGUAGUUGGCGAGGAGGAGGUGUAUCGAAUUUUCGGCGGAUGCUUCGAAA [A33G U46G C68U C71G]
# output 0.000183
